# target-desc: biotinylated histone H3 peptide trimethylated at lysine 27, H3K27me3 (21-44) (UniProt P68431 22-45, trimethyl-lysine at K27; biotinylated)
# assay-info: peptide microspot array; apparent Kd; 20 uM H3K27me3; replicate 3
observable: Kd (µM)
Write the value in µM as a bare number.

Query: // lookup Kd for PcTF, monovalent Polycomb-based transcription factor (pET28 construct, purified from E. coli) (designed binder) MELSAVGERVFAAEALLKRRIRKGRMEYLVKWKGWSQKYSTWEPEENILDARLLAAFEERER
Result: 6.45
